Target Entity: T1, human BCMA on the cell membrane surface (H929 and RPMI8226 cells) (human, UniProt Q02223 1-184)
T1 construct: whole, on cells; also called BCMA antigen on the cell membrane surface; BCMA-expressing cell line H929
T1 sequence (looked up): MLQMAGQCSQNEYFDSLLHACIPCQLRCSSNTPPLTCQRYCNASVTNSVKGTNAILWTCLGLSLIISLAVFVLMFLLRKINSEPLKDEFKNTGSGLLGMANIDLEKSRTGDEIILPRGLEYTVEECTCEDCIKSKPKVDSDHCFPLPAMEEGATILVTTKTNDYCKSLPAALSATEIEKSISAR
Test Summary: flow cytometry on H929 cells, scFv-Fc
Readout Type: percentage of binding
I'd appreciate it if you included the unit after the number.

Q: Any idea what its percentage of binding is? The binder is B10.5 scFv-Fc (Fc fusion, also called mutant B10.5; not shown: Fc (scFv-Fc)) scFv: QVQLQQSGAEVKKPGSSVKVSCKASGGTFSKSAIHWVRQAPGQGLEWMGGVIPIFGTANYAQKFQGRVTITADESTSTAYMELSSLRSEDTAVYYCARGWYLDLWGRGTLVTVSSASTGGSSRSSSSGGGGSGGGGLPVLTQPPSASGTPGQRVTISCSGSSSNIGGYSVNWYQQFPGTAPKLLIYRNNQRPSGVPDRFSGSKSGASASLAISGLQSEDVADYYCAAWDDSLIGYVFGTGTQLTVL
Result: 97.2%
